Source: ChEMBL document CHEMBL1137767

assay: Cytotoxicity against human HGF cells after 48 hrs; assay type: cell-based

{"CPD SMILES": "Cc1ccc(/C=C/C(=O)c2c(C)[n+]([O-])c3ccccc3[n+]2[O-])cc1", "CC50 at 48 h (µM)": 32}
{"CPD SMILES": "COc1ccc(/C=C/C(=O)c2c(C)[n+]([O-])c3ccccc3[n+]2[O-])cc1", "CC50 at 48 h (µM)": 52}
{"CPD SMILES": "Cc1c(C(=O)/C=C/c2ccc(Cl)c(Cl)c2)[n+]([O-])c2ccccc2[n+]1[O-]", "CC50 at 48 h (µM)": 29}
{"CPD SMILES": "Cc1c(C(=O)/C=C/c2ccc(Br)cc2)[n+]([O-])c2ccccc2[n+]1[O-]", "CC50 at 48 h (µM)": 53}
